Tested on: SK-MEL-5 melanoma
experiment: NCI-60 one-dose screen, 48 h
settings: 10 µM unless noted
The panel holds about 83,000 compounds, 20% with a hit somewhere; the sample as a whole holds those more often. The source made the active and inactive calls. How the source made its calls: active means growth percent below 10; inactive means the rest.
Choose one outcome from this list and give only that: active, inactive

Record excerpt, results attached:
molecule	target_or_system	cat
O=C(Nc1nc(-c2ccc(Cl)cc2)nc2c1sc(=S)n2-c1ccccc1)C(F)(F)F	SK-MEL-5 melanoma	inactive
CCCCCCCCCc1ccc(OCCOCCOCCOCCOCCOCCOCCOCCOCCO)cc1	SK-MEL-5 melanoma	active
CS(=O)(=O)Nc1cc(-c2ccc3ncnc(Nc4ccc5c(cnn5Cc5ccc(F)cc5)c4)c3c2)cnc1Cl	SK-MEL-5 melanoma	inactive
O=C(NCCCl)Nc1ncccc1OCc1ccccc1	SK-MEL-5 melanoma	inactive
O=CN1N=C(c2cccc(Nc3ccnc4cc(Cl)ccc34)c2)CC1c1ccccc1 (centres undefined)	SK-MEL-5 melanoma	inactive
COc1cc2ncnc(Nc3ccc(S(=O)(=O)Nc4cc(C)on4)cc3)c2cc1OCCCN1CCN(c2ccc(F)cc2)CC1	SK-MEL-5 melanoma	inactive
CC(=O)O[C@@H]1C[C@]2(C(C)C)O[C@@]1(C)[C@@H]1CCC(C)=C1[C@@H]2OC(=O)/C=C/c1ccccc1	SK-MEL-5 melanoma	inactive
COc1cccc(/C=C2\COc3ccc(O)c(O)c3C2=O)c1	SK-MEL-5 melanoma	inactive

# evaluate next
What call does the record list for C#COc1cccc(Nc2c(C#N)cnc3ncc(NC(=O)CCl)cc23)c1 ?
inactive

# credit: PubChem BioAssay (NCI)
